Values from patent US20260176270A1

# assayedSystem: PKMYT1 (Homo sapiens, UniProt Q99640)
# Construct: PKMYT1 (93 kD, full length, N-terminal GST tag from Signal Chem); GST (N); purchased Signal Chem
# Sequence (Q99640 whole entry): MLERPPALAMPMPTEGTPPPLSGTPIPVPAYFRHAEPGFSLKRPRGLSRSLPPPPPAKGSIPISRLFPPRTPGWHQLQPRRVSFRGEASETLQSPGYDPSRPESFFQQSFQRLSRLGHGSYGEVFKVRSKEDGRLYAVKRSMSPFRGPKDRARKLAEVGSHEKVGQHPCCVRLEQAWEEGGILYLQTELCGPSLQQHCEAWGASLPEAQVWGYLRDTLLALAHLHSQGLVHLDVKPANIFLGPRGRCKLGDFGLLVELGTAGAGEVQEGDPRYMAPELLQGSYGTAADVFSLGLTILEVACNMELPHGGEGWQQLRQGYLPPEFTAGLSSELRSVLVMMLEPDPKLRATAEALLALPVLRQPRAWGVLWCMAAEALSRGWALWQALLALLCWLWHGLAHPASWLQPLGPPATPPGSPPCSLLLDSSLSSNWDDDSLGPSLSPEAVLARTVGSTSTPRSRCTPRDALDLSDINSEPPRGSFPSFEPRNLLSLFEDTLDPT
# assayDetails: ADP-Glo PKMYT1 ATP-depletion assay
# conditionDescription: 50 nM PKMYT1, 13.3 nM CDK1, read-out: Biochemical IC50
Can you tell me IC50 for the items I'm about to list?

Q: Give the measured IC50 for NC(=O)c1cc2nccnc2c(-c2cc(O)ccc2Cl)c1N (atropisomer, axis not shown)
Ans: 50 to 500 nM

Q: Return IC50 for the following molecule: Cc1ccc(O)c(C)c1-c1c(N)c(C(N)=O)nc2c(C)cccc12 [Compound 27]
Ans: 500 to 1000 nM

Q: Consider the molecule NC(=O)c1cc2nccnc2c(-c2cccc3[nH]ncc23)c1N and give its recorded IC50.
Ans: 50 to 500 nM

Q: Report measured IC50; entry is NC(=O)c1nc2c(c(-c3cc(O)cnc3F)c1N)NCCC2 (atropisomer, axis not shown)
Ans: ≥ 5000 nM

Q: Indicate its recorded IC50; the molecule in question is Cc1ccc(O)c(C)c1-c1cc(C(N)=O)cc2nccnc12 (atropisomer, axis not shown)
Ans: ≥ 5000 nM

Q: Dear colleague, please send me the reported IC50 for Cc1ccc(O)c(C)c1-c1c(N)c(C(N)=O)nc2cc(F)ccc12 when you can.
Ans: 50 to 500 nM

Q: Determine its reported IC50: Cc1ccc(O)c(C)c1-c1c(N)c(C(N)=O)nc2ccc(F)cc12 (atropisomer, axis not shown; (P)) [Compound 24]
Ans: 1000 to 5000 nM

Q: Query IC50 for Cc1c(O)cccc1-c1c(N)c(C(N)=O)cc2nc(N3CCOCC3)cnc12
Ans: < 50 nM

---

# Test system: phosphorylation of CDK1 at Thr14 in HCC1806 cells
# assayDetails: Cell lysate AlphaLISA assay measuring inhibition of phosphorylation of CDK1 Thr14
# Assay type: cell-based
# conditionDescription: 4 hours, read-out: Cellular IC50
metric: IC50

Q: Please report IC50 for the following compound: Cc1ccc(O)c(C)c1-c1c(N)c(C(N)=O)nc2ccccc12 [Compound 22]
Ans: 1000 to 5000 nM

Q: Report IC50, nothing else, for this compound: NC(=O)c1nc2c(c(-c3cc(O)cnc3F)c1N)NCCC2 (atropisomer, axis not shown) [Compound 296]
Ans: ≥ 5000 nM

Q: # return recorded IC50 for entry Cc1ccc(O)c(C)c1-c1c(N)c(C(N)=O)nc2ccc(C(F)(F)F)cc12 (single isomer, unassigned) [Compound 41]
Ans: ≥ 5000 nM

Q: Read off the recorded IC50 for Cc1ccc(O)c(C)c1-c1c(N)c(C(N)=O)nc2ccc(C(F)(F)F)cc12 (single isomer, unassigned) [Compound 40]
Ans: 1000 to 5000 nM

Q: Check the records and state IC50 for NC(=O)c1nc2cccnc2c(-c2c(F)ccc3[nH]ncc23)c1N (atropisomer, axis not shown) [Compound 244]
Ans: 500 to 1000 nM

Q: Identify IC50 associated with the compound COc1nc2cc(C(N)=O)c(N)c(-c3cccc(O)c3C)c2nc1C (atropisomer, axis not shown) [Compound 187]
Ans: 50 to 500 nM

Q: Give a short answer stating reported IC50 for Cc1ccc(-c2c(N)c(C(N)=O)nc3cccnc23)c(C)c1O [Compound 292] .
Ans: 500 to 1000 nM
